pIC50 by entry:
test system: HT-29; assay: Dose required to inhibit cell growth was determined against HT-29 cell line of human adenocarcinoma; assay type: functional, cell-based
pIC50: −log10 of the molar value.

COMPOUND | MEASURED TARGET | LIMIT SIGN | pIC50
O=C(NCCCl)Nc1ccc(Br)cc1 | HT-29 | = | 5.05
CCCNC(=O)Nc1ccc(C(C)C)cc1 | HT-29 | = | 4.12
CCCCCCCc1ccc(NC(=O)NCCCl)cc1 | HT-29 | = | 4.60
CCNC(=O)Nc1ccc(C(C)(C)C)cc1 | HT-29 | = | 4.08
CCCCCc1ccc(NC(=O)NCCCl)cc1 | HT-29 | = | 4.92
CCc1ccc(NC(=O)NCCCl)cc1 | HT-29 | = | 5.19
CC(C)Cc1ccc(NC(=O)NCCCl)cc1 | HT-29 | = | 4.68
CC(Cl)CNC(=O)Nc1ccc(C(C)(C)C)cc1 (stereo not drawn) | HT-29 | = | 4.68
O=C(NCCCl)Nc1ccccc1 | HT-29 | < | 4.00
Cc1ccc(NC(=O)NCCCl)cc1C | HT-29 | = | 5.27
O=C(NCCCl)Nc1ccc2ccccc2c1 | HT-29 | = | 5.26
CC(C)CCc1ccc(NC(=O)NCCCl)cc1 | HT-29 | = | 4.48
O=C(NCCCl)Nc1ccc(I)cc1 | HT-29 | = | 5.41
Cc1ccc(NC(=O)NCCCl)cc1 | HT-29 | = | 4.64
O=C(O)CCCc1ccc(N(CCCl)CCCl)cc1 [CHLORAMBUCIL] | HT-29 | < | 4.00
O=C(NCCCl)Nc1cccc(I)c1 | HT-29 | = | 4.62
CCCNC(=O)Nc1ccc(C(C)(C)C)cc1 | HT-29 | = | 4.46
CCCNC(=O)Nc1ccc(C(C)CC)cc1 (stereo not drawn) | HT-29 | = | 3.88

These data points were gathered from ChEMBL document CHEMBL1134792.
